assay name: self-splicing fitness, log relative to wild type (ln ratio); higher = more splicing; Tetrahymena group I intron in knt gene, E. coli kanamycin selection, DiMSum; sequences stand for … in CUCUCU…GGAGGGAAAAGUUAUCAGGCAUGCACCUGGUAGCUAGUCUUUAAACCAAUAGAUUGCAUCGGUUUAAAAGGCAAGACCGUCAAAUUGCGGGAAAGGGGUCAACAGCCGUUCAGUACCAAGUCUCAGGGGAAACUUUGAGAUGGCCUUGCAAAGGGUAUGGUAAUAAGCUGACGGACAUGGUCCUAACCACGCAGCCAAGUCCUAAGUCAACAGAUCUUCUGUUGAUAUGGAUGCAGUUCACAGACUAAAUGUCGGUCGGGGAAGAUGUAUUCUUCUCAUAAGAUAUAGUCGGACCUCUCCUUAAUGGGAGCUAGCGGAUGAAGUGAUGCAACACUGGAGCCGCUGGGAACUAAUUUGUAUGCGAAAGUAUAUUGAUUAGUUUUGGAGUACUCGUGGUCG;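 note: selection with 25 µg/mL kanamycin versus none on LB agar overnight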
condition notes: 30 °C
reported endpoint: self-splicing fitness (ln)

[[record]]
biosequence = "UCACAGCAAUAUUACGUGCU"
value_reported = -3.75

[[record]]
biosequence = "ACGGAGCAAUAUUACGUAGA"
value_reported = -4.18

[[record]]
biosequence = "CCAAAGCAAUAUUACGUCUG"
value_reported = -0.9

[[record]]
biosequence = "ACUUAGCAAUAUUACGGUUC"
value_reported = -2.73

[[record]]
biosequence = "GUGAAGCAAUAUUACGUGAA"
value_reported = -2.63

[[record]]
biosequence = "ACUGAGCAAUAUUACGCUAC"
value_reported = -3.24

[[record]]
biosequence = "AUUGAGCAAUAUUACGGGCA"
value_reported = -2.81

[[record]]
biosequence = "UUACAGCAAUAUUACGGCAA"
value_reported = -0.112

[[record]]
biosequence = "CAGUAGCAAUAUUACGGGUG"
value_reported = -0.853

[[record]]
biosequence = "CAAGAGCAAUAUUACGGUCC"
value_reported = -2.01

[[record]]
biosequence = "AGUUAGCAAUAUUACGCCCG"
value_reported = -1.52

[[record]]
biosequence = "AGGCAGCAAUAUUACGAGAG"
value_reported = -3.49

[[record]]
biosequence = "GCGCAGCAAUAUUACGCUCU"
value_reported = -3.21

[[record]]
biosequence = "AGCAAGCAAUAUUACGUGUG"
value_reported = -2.9

[[record]]
biosequence = "UAUGAGCAAUAUUACGUUUA"
value_reported = -2.59

[[record]]
biosequence = "GGCCAGCAAUAUUACGUUAG"
value_reported = -3.38

[[record]]
biosequence = "ACGAAGCAAUAUUACGUUGC"
value_reported = -3.45

[[record]]
biosequence = "AACCAGCAAUAUUACGGGUA"
value_reported = -0.823

[[record]]
biosequence = "GAACAGCAAUAUUACGCCGA"
value_reported = -0.857

[[record]]
biosequence = "CUAAAGCAAUAUUACGGCCA"
value_reported = -3.21

[[record]]
biosequence = "GAGGAGCAAUAUUACGUUCG"
value_reported = -1.89

[[record]]
biosequence = "UUAAAGCAAUAUUACGAUUC"
value_reported = -1.07

[[record]]
biosequence = "UUGAAGCAAUAUUACGGUAU"
value_reported = -2.49

[[record]]
biosequence = "UGAUAGCAAUAUUACGCAAU"
value_reported = -2.87

[[record]]
biosequence = "CUAGAGCAAUAUUACGUAAU"
value_reported = -3.79

[[record]]
biosequence = "CAUAAGCAAUAUUACGGCCA"
value_reported = -2.38

[[record]]
biosequence = "CGGUAGCAAUAUUACGACCU"
value_reported = 0.308

[[record]]
biosequence = "CUAAAGCAAUAUUACGGCCG"
value_reported = 0.821

[[record]]
biosequence = "GCAGAGCAAUAUUACGGUAU"
value_reported = -3.23

[[record]]
biosequence = "CCCAAGCAAUAUUACGAAAC"
value_reported = -2.72

[[record]]
biosequence = "AUGUAGCAAUAUUACGCUAC"
value_reported = -3.14

[[record]]
biosequence = "UACCAGCAAUAUUACGGUUA"
value_reported = -0.306

[[record]]
biosequence = "UGUUAGCAAUAUUACGGCGG"
value_reported = -0.72

[[record]]
biosequence = "AUGGAGCAAUAUUACGCCAU"
value_reported = -4.27

[[record]]
biosequence = "CCUUAGCAAUAUUACGUAAA"
value_reported = -3.63

[[record]]
biosequence = "CGUGAGCAAUAUUACGACUU"
value_reported = -2.96

[[record]]
biosequence = "CUACAGCAAUAUUACGGGAU"
value_reported = -2.74

[[record]]
biosequence = "CGUGAGCAAUAUUACGAGCA"
value_reported = -1.58

[[record]]
biosequence = "CCAAAGCAAUAUUACGAGCA"
value_reported = -3.64

[[record]]
biosequence = "ACAUAGCAAUAUUACGUUCC"
value_reported = -2.65

[[record]]
biosequence = "GCGUAGCAAUAUUACGAAUG"
value_reported = -1.32

[[record]]
biosequence = "UUAUAGCAAUAUUACGUGGU"
value_reported = -3.55

[[record]]
biosequence = "AGCAAGCAAUAUUACGUUUG"
value_reported = -4.51

[[record]]
biosequence = "CACUAGCAAUAUUACGUUGG"
value_reported = -2.27

[[record]]
biosequence = "CGGUAGCAAUAUUACGACGC"
value_reported = -1.39

[[record]]
biosequence = "CUACAGCAAUAUUACGAGGG"
value_reported = -3.38

[[record]]
biosequence = "UCUAAGCAAUAUUACGGACU"
value_reported = -3.51

[[record]]
biosequence = "GACGAGCAAUAUUACGAAAC"
value_reported = -4.29

[[record]]
biosequence = "GCACAGCAAUAUUACGGGAU"
value_reported = -1.01

[[record]]
biosequence = "UGGAAGCAAUAUUACGUACU"
value_reported = -0.516

[[record]]
biosequence = "GAUAAGCAAUAUUACGUGAC"
value_reported = -2.55

[[record]]
biosequence = "GGACAGCAAUAUUACGCACG"
value_reported = -0.391

[[record]]
biosequence = "GGCGAGCAAUAUUACGGGCU"
value_reported = -2.07

[[record]]
biosequence = "CUCCAGCAAUAUUACGUAGU"
value_reported = -3.75

[[record]]
biosequence = "CAUUAGCAAUAUUACGGGAU"
value_reported = -3.2

[[record]]
biosequence = "CUUCAGCAAUAUUACGCGUG"
value_reported = -0.775

[[record]]
biosequence = "CAUAAGCAAUAUUACGACGC"
value_reported = -2.7

[[record]]
biosequence = "UAUGAGCAAUAUUACGAAAU"
value_reported = -3.68

[[record]]
biosequence = "CUCAAGCAAUAUUACGGCGG"
value_reported = -2.38

[[record]]
biosequence = "GGAUAGCAAUAUUACGGUCA"
value_reported = -0.171

[[record]]
biosequence = "UCCUAGCAAUAUUACGACGC"
value_reported = -2.35

[[record]]
biosequence = "CCCAAGCAAUAUUACGGGGU"
value_reported = -3.46

[[record]]
biosequence = "UCACAGCAAUAUUACGAACA"
value_reported = -1.58

[[record]]
biosequence = "GGACAGCAAUAUUACGCAUU"
value_reported = -0.834

[[record]]
biosequence = "GGUAAGCAAUAUUACGUAAU"
value_reported = -1.21

[[record]]
biosequence = "GAUCAGCAAUAUUACGACAG"
value_reported = -3.24

[[record]]
biosequence = "CGAGAGCAAUAUUACGCACU"
value_reported = -2.06


Value source: the supplement of paper PMC7877785
